B1: Pituitary-specific positive transcription factor 1, residues 130 to 198; numbered along this chain, P28069 (parent)
chain: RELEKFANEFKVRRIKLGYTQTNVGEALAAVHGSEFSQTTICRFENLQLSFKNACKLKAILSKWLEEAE

variants of: B1; test: abundance fitness (aPCA) (normalised: wild type 0, dead -1); higher = more abundant; growth selection in yeast, the domain comes from the species named; conditions: Homo sapiens
Classify by measured abundance fitness: label 1 if it is equal to or exceeds -0.2, label 0 if it is smaller.

>  <VARIANT DESIGNATION>
V24Y

>  <CLASS ASSIGNMENT>
label 0

$$$$
>  <VARIANT DESIGNATION>
R14M

>  <CLASS ASSIGNMENT>
label 0

$$$$

Item I41M with abundance fitness of -0.2 or above? label 0

Item Y19D with abundance fitness of -0.2 or above? label 0
